Test: chemical genetic growth profiling, strain panel (AID 1159580);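 note: tested at 20 µM; growth read once vehicle control cultures reached saturation at 30 °C; lower values mean less growth of the strain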
Details: S. cerevisiae deletion strains, growth OD, locus YOR083W, strain WHI5 (second series)
The whole screen tested about 5,500 compounds, of which about 2,000 (36%) were called active. Roughly 18% stayed inconclusive and do not appear here. Cut-off read from the data, not from the text of the source: active = normalized growth mostly below about 0.91 (no sharp cut-off); inconclusive = no clear call, values can overlap the other calls; inactive = mostly above about 0.92. The list shows a part of the results.
Pick one and only one: active, inactive

Would you please look over these solved cases?
CN1C2CCC1CC(OC(c1ccccc1)c1ccccc1N)C2 (centres undefined): inactive
N[C@H]1CONC1=O: inactive
CCCCCCCC/C=C\CCCCCCCC(=O)NCCc1ccc(O)c(O)c1: inactive
C=CC1(C)CC(=O)C2(O)C(C)(O1)C(OC(C)=O)C(O)C1C(C)(C)CCC(O)C12C (centres undefined): inactive
O=C(O)/C=C/C(=O)O: inactive

Look up the recorded call for C[C@H](Cc1ccccc1)Nc1ncnc2c1ncn2[C@@H]1O[C@H](CO)[C@H](O)C1O (some centres undefined) in this test.
inactive

Look up the recorded call for CC1CC2C3CCC4=CC(=O)C=CC4(C)C3(F)C(O)CC2(C)C1(O)C(=O)CO (centres undefined) in this test.
inactive

Look up the recorded call for CNCCC(Oc1ccc(C(F)(F)F)cc1)c1ccccc1 (centres undefined) in this test.
inactive

Look up the recorded call for `CCN(CC)CCOC(=O)c1cc(Cl)c(N)cc1OC` in this test.
inactive

Look up the recorded call for O=C1C2C=CC=CC2=NC(=S)N1CCN1CCC(=C(c2ccc(F)cc2)c2ccc(F)cc2)CC1 (centres undefined) in this test.
active

Look up the recorded call for `CC(C)NC[C@H](O)COc1cccc2[nH]ccc12` in this test.
inactive

Look up the recorded call for CC(C)(C)NCC(O)COc1cccc2[nH]c(=O)[nH]c12 (centres undefined) in this test.
inactive

Look up the recorded call for `CCCCNC(=O)NS(=O)(=O)c1ccc(C)cc1` in this test.
inactive

Look up the recorded call for CN1C2CCC1CC(OC(=O)c1c[nH]c3ccccc13)C2 (centres undefined) in this test.
inactive

Look up the recorded call for `O=C(O)c1cc2cc(F)ccc2[nH]1` in this test.
inactive
